# measured.target: T1, Extracellular domain of cyno PD1 (cPD1-ECD) (Macaca fascicularis (cynomolgus))
# T1 construct: Expressed with a hexahistidine tag or as Fc fusion; also called cynoPD1-ECD; cynoPD-1-ECD
# T1 chain: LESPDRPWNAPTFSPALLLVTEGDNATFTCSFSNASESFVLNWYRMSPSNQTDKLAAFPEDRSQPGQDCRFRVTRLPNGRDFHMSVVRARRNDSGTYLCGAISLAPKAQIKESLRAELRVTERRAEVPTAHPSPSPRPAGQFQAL
# test.summary: SPR ProteOn, cynoPD1-ECD; RANGE low replicate
The entries below are paired with their reported koff.
Could you give me the number in s⁻¹? Just the number is fine.

- binder: "PD1B177 (antibody, V domains shown, Tested as IgG2sigma; also called PD1H164/PH9L3) VH: QVQLVQSGAEVKKPGSSVKVSCKASGGTFSDYVISWVRQAPGQGLEWMGGIIPIYGTANYAQKFQGRVTITADESTSTAYMELSSLRSEDTAVYYCARGTLDRTGHLDYWGQGTLVTVSS VL: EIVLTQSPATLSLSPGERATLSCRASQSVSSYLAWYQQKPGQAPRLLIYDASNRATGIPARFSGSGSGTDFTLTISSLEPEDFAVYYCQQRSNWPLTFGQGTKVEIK"
  recorded.metric: "koff"
  unit.text: "s⁻¹"
  obs.value: 0.00184
- binder: "PD1B70 (antibody, V domains shown, Tested as IgG2sigma/kappa; also called PD1H107/PH9L3) VH: QVQLVQSGAEVKKPGSSVKVSCKASGGTFSSYAISWVRQAPGQGLEWMGGIIPIFGTANYAQKFQGRVTITADESTSTAYMELSSLRSEDTAVYYCARGYVRATGMLDYWGQGTLVTVSS VL: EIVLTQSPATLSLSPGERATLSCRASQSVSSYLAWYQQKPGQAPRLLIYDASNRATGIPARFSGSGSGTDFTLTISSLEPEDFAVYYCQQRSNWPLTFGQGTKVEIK"
  recorded.metric: "koff"
  unit.text: "s⁻¹"
  obs.value: 0.0245

The record that follows has no koff shown yet.
Form field koff, entry PD1B11 (antibody, V domains shown, Tested as IgG2sigma/kappa; also called PD1H3/PH9L3) VH: QVQLVQSGAEVKKPGSSVKVSCKASGGTFSSYAISWVRQAPGQGLEWMGGIIPIFGTANYAQKFQGRVTITADESTSTAYMELSSLRSEDTAVYYCARPGLAAAYDTGSLDYWGQGTLVTVSS VL: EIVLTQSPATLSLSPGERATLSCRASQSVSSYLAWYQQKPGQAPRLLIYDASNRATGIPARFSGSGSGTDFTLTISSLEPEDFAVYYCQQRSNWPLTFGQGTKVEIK : 0.008
